Would you mind telling me the reported viability at 25 µM of each entry?
- Test summary: Cytotoxicity against human HEK293 cells assessed as viable cells at 25 uM relative to control
- Assay type: toxicity, cell-based
- Condition context: read-out: Activity
The reply should contain only the number, in %.

Which viability at 25 µM is listed for `CC(C)Oc1ccc(-c2ncc(CNc3ccnc(C(F)(F)F)c3)s2)cc1Cl` ?
51

Which viability at 25 µM is listed for `FC(F)(F)c1cc(NCc2cn(-c3ccc(Oc4ccccc4)cc3)nn2)ccn1` ?
48

---

- Test summary: Metabolic stability in mouse liver microsomes assessed as half life at 1 uM measured after 30 mins by HPLC-MS/MS analysis
- Assay type: ADME, Microsome
Would you mind telling me the reported half-life at 1 µM of each entry?
The reply should contain only the number, in min.

Which half-life at 1 µM is listed for `FC(F)(F)c1cc(SCc2cnc(-c3ccc(Oc4ccccc4)cc3)s2)ccn1` ?
11

Which half-life at 1 µM is listed for `FC(F)(F)c1cc(NCc2ncc(-c3ccc(Oc4ccccc4)cc3)s2)ccn1` ?
10

Which half-life at 1 µM is listed for `CC(C)Oc1ccc(-c2ncc(CNc3cc(Cl)nc(C(F)(F)F)c3)s2)cc1Cl` ?
28

Which half-life at 1 µM is listed for `CC(C)Oc1ccc(-c2ncc(CNc3cc(C#N)nc(C(F)(F)F)c3)s2)cc1Cl` ?
58

Which half-life at 1 µM is listed for `CC(C)Nc1ccc(-c2ncc(CNc3ccnc(C(F)(F)F)c3)s2)cc1` ?
7

Which half-life at 1 µM is listed for `CC(C)Oc1ccc(-c2ncc(CNc3ccnc(C(F)(F)F)c3)s2)cc1Cl` ?
20

Which half-life at 1 µM is listed for `N#Cc1cc(NCc2cnc(-c3ccc(Oc4ccccc4)cc3)s2)ccn1` ?
39

Which half-life at 1 µM is listed for `COc1ccc(-c2ncc(CNc3ccnc(C(F)(F)F)c3)s2)cc1Cl` ?
1

Which half-life at 1 µM is listed for `FC(F)(F)c1cc(NCc2cc(-c3ccc(Oc4ccccc4)cc3)n[nH]2)ccn1` ?
23

Which half-life at 1 µM is listed for `CC(C)Oc1ccc(-c2ncc(CNc3ccnc(Cl)c3)s2)cc1` ?
22
